Target: PRMT5/MEP50 (Homo sapiens)
Construct: Expressed full-length human Flag-PRMT5/6His-MeP50 protein complex was purified; made in house; host or cells: Spodoptera frugiperda (SF9) insect cells, baculovirus (pDEST8)
Sequence (O14744 with tags, fused parts or gaps): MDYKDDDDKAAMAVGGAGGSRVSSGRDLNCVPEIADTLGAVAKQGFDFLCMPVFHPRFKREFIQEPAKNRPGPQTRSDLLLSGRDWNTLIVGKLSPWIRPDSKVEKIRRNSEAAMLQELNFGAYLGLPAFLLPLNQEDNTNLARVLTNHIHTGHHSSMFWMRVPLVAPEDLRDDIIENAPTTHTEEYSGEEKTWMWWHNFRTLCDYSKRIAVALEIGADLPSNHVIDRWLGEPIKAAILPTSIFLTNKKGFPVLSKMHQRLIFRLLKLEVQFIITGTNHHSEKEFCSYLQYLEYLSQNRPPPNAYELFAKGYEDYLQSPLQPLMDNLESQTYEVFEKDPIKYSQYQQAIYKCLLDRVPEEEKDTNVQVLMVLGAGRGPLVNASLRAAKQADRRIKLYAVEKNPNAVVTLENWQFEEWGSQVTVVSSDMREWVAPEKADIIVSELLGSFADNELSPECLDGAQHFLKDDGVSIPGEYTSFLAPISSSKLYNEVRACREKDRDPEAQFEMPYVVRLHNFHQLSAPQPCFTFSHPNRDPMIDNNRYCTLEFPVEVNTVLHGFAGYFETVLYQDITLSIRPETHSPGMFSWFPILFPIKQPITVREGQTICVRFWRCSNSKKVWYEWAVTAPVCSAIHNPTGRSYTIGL
Sequence (Q9BQA1 with tags, fused parts or gaps partner limits assumed): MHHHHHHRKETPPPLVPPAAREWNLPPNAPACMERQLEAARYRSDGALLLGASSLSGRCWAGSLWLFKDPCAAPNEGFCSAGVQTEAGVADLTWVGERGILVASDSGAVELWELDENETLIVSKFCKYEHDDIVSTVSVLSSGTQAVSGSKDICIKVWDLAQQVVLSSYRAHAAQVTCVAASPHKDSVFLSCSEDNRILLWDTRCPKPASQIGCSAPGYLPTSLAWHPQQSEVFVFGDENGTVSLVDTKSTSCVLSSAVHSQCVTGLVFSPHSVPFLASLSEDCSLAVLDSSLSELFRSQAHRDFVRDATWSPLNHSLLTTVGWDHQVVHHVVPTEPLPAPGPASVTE
Experiment: PRMT5 Biochemical Assay (PRMT5/MEP50 enzyme assay on peptide substrate, 3H-SAM Flashplate)
Details: Table D-2; read-out: Biochemical IC50
The entries below come with measured IC50 values attached.

Sample records with IC50:
>>> result("O=C(c1cccc(-c2cccc(OCC(O)CN3CCc4ccccc4C3)c2)c1)N1CCCC1 (centres unmarked) [Compound D185]")
"101 to 1000 nM"
>>> result("OC(COc1cccc(-c2cc(OC(F)(F)F)ccc2Cl)c1)CN1CCc2ccccc2C1 (centres unmarked) [Compound D200]")
"101 to 1000 nM"
>>> result("CC1c2ccccc2CCN1CC(O)COc1cccc(CNC2CCCC2)c1 (centres unmarked) [Compound D50]")
"1000 to 10000 nM"

Lookup: // fetch IC50 given entry CC(C)(C)OCc1cccc(-c2cccc(OCC(O)CN3CCc4ccccc4C3)c2)c1 (centres unmarked) [Compound D150]
Found: 101 to 1000 nM

Lookup: Report IC50, nothing else, for this molecule: Cn1cnc2ccc(-c3nccc(NCC(O)CN4CCc5ccccc5C4)n3)cc21 (centres unmarked) [Compound D120]
Found: 1000 to 10000 nM

Lookup: Specify IC50 for OC(COc1cccc(-c2cccnc2F)c1)CN1CCc2ccccc2C1 (centres unmarked) [Compound D139] and stop.
Found: 101 to 1000 nM

Lookup: State its IC50: OC(COc1cccc(-c2ccc(Cl)cc2)c1)CN1CCc2ccccc2C1 (centres unmarked) [Compound D69]
Found: 1000 to 10000 nM

Lookup: Quick one: give measured IC50 for OC(CNc1cc(-c2ccc3ncn(C4COC4)c3c2)ccn1)CN1CCc2ccccc2C1 (centres unmarked) [Compound D265]
Found: < 100 nM
